All values here come from patent US20240335431A1.

Assay: Human liver microsomes (HLMs) intrinsic clearance assay
Type: in vitro ADME
Details: human, microsomes, pH 7.4, HLM CLint
quantityMeasured: microsomal CLint at 1 µM (µL/min/mg)

CCN(C(=O)c1cc(F)ccc1-n1cc(C(=O)C2CN(C(=O)[C@H]3N[C@@H]4CC[C@H]3C4)C2)c2ccncc21)C(C)C 21

[P] CCN(C(=O)c1cc(F)ccc1-n1cc(C(=O)C2CCN(C(=O)[C@H]3N[C@@H]4CC[C@H]3C4)CC2)c2ccncc21)C(C)C
[Q] CC(C)N(C(=O)c1cc(F)ccc1-n1cc(C(=O)[C@H]2CCN(C(=O)[C@H]3N[C@@H]4CC[C@H]3C4)C2)c2ccncc21)C(C)C
Lab note: check whether P or Q has the lower measured microsomal CLint at 1 µM. Label of pick, please.
P
(P: 23 µL/min/mg, Q: 43 µL/min/mg)
